The following compounds are shown together with reported DPPH radical scavenging rate values.
assayProcedure: DPPH radical scavenging assay
testSettings: 50 µM compound; 30 min; absorbance 517 nm
Number first, unit second: that is the form wanted.

Example cases with answers are listed next.
Prompt: Quick check: DPPH radical scavenging rate of CC(C)c1cc(C=O)c2c(c1O)OC(=O)C1C(C)(C)CCC[C@]21C=O (stereo partly drawn) [Compound 4, saficinolide] ?
Response: 13.2 ± 1.5%

Prompt: Look up DPPH radical scavenging rate: `CC(C)c1cc2c(c(O)c1O)[C@@]13CCCC(C)(C)[C@@H]1C[C@@H]2OC3=O`
Response: 86.1 ± 3.3%

Prompt: // DPPH radical scavenging rate lookup, key: `CC(C)c1cc2c(c(O)c1O)[C@]13CO[C@H]2C[C@H]1C(C)(C)C[C@H](O)C3`
Response: 89.6 ± 1.3%

Next:
Prompt: Endpoint output: DPPH radical scavenging rate of CC(C)c1cc(O)c2c(c1O)[C@@H]1CC3C(C)(C)CCC[C@]23C(=O)O1 (stereo partly drawn) . Value?
Response: 49.0 ± 1.1%

Prompt: # input compound: O=C1O[C@H]([C@@H](O)CO)C(O)=C1O [Vit. C, Vitamin C, reference compound] ; wanted: its DPPH radical scavenging rate
Response: 89.1 ± 2.2%

Prompt: Suppose we examine the compound CC(C)C1CC2C(CO)(CC(O)C(O)C2(C)C)c2c(O)cc(O)cc21 (stereo not drawn) ; what DPPH radical scavenging rate value has been reported?
Response: 75.4 ± 6.8%

Entry source: paper PMC6332173
